Source listed as patent US8158621B2.

Readings of pIC50 for the listed compounds
system: cultured human mast cells (CHMC); test: CHMC low cell density IgE activation: tryptase assay; assay type: cell-based; settings: low cell density; read-out: CHMC anti-IgE Tryptase
The read-out pIC50 is expressed as -log10 of concentration in moles per litre.

Please review the following examples before continuing.
Cn1ncc2ccc(Nc3ncc(F)c(Nc4ccc(F)c(F)c4)n3)cc21 | 6.29
CNC(=O)COc1cccc(Nc2ncc(F)c(Nc3ccc4c(c3)[C@@H](N)CCO4)n2)c1 | 6.94
CNC(=O)COc1cccc(Nc2ncc(F)c(Nc3cccc(N)n3)n2)c1 | 6.69
CNC(=O)CCn1cc2cc(Nc3ncc(F)c(Nc4ccc5c(c4)NC(=O)C(C)(C)O5)n3)ccc2n1 | 6.82
N[C@@H]1CCCC[C@H]1Nc1ncc(F)c(Nc2cc(Cl)cc(Cl)c2)n1 | 4.98

Just so you know, measured pIC50 for CNC(=O)c1ccc(Cn2ncc3ccc(Nc4ncc(F)c(Nc5ccc6c(c5)OCCO6)n4)cc32)c(OC)c1 came out at 6.04

Just so you know, measured pIC50 for COc1c(Cl)cc(Nc2ncc(F)c(NC3CCC3)n2)cc1Cl came out at 6.03

###

tested on: cultured human mast cells (CHMC); test: CHMC low cell density IgE activation: tryptase assay; assay type: cell-based; conditions: low cell density; read-out: CHMC anti-IgE Tryptase
Readings of log10(IC50) for the listed compounds
Please note: log10 values; quantity IC50; unit nM.

Please review the following examples before continuing.
CNC(=O)COc1cccc(Nc2ncc(F)c(Nc3ccc4c(c3)NC(=O)C(F)(F)O4)n2)c1 | 1.66
O=C1COc2ccc(Nc3nc(Nc4cccc(OCC(=O)NC5CC5)c4)ncc3F)nc2N1 | 2.07
COC(=O)N1CCN(c2ccc(Nc3ncc(F)c(Nc4ccc5c(n4)NC(=O)CO5)n3)cc2)CC1 | 1.93
O=C(COc1cccc(Nc2ncc(F)c(NC3CC3)n2)c1)Nc1ccc(N2CCOCC2)cc1 | 2.41

Just so you know, measured log10(IC50) for COc1ccc(Nc2nc(Nc3ccc4cc[nH]c4c3)ncc2F)cc1Cl.Cc1ccc(S(=O)(=O)O)cc1 came out at 2.64

Just so you know, measured log10(IC50) for O=C(O)C1Cc2cc(Nc3ncc(F)c(Nc4ccc(OC(F)(F)F)c(Cl)c4)n3)ccc2O1 (stereo not shown) came out at 3.18

Just so you know, measured log10(IC50) for CNC(=O)COc1cccc(Nc2ncc(F)c(Nc3ccc4c(c3)C(=O)NC(=O)C4(C)C)n2)c1 came out at 3.01

###

tested on: cultured human mast cells (CHMC); assay: CHMC low cell density IgE activation: tryptase assay; assay type: cell-based; conditions: low cell density; read-out: CHMC anti-IgE Tryptase
Rule for this label: y means IC50 is less than 700 nM; n means IC50 is at least 700 nM.

COc1c(C)cc(Nc2ncc(F)c(Nc3ccc4c(c3)OCCO4)n2)cc1Cl | n

Okay, next one:
Asked: API: query returns whether the molecule falls strictly under 700 nM in IC50. Query: CCN(CC)CCNC(=O)c1ccc(Nc2ncc(F)c(Nc3ccc4c(c3)NC(=O)C(F)(F)O4)n2)cc1
Given back: y

###

molecular target: Syk kinase (Homo sapiens, UniProt P43405); experiment: Syk kinase biochemical fluorescence polarization assay; conditions: isolated Syk kinase, fluorescence polarization, 4 uM ATP
Readings of pIC50 for the listed compounds
The read-out pIC50 is expressed as -log10 of concentration in moles per litre.

Just so you know, measured pIC50 for Cc1cc(Nc2ncc(F)c(Nc3cccc(O)c3)n2)cc(Cl)c1O came out at 6.82

Just so you know, measured pIC50 for CN(C)Cc1cc2cc(Nc3ncc(F)c(Nc4ccc5c(c4)NC(=O)C(F)(F)O5)n3)ccc2o1 came out at 7.89

Just so you know, measured pIC50 for CC1(C)Oc2ccc(Nc3nc(Nc4ccc(N5CCOCC5)cc4)ncc3F)nc2NC1=O came out at 6.56

Just so you know, measured pIC50 for CNC(=O)C1Cc2cc(Nc3ncc(F)c(Nc4ccc5c(c4)NC(=O)C(F)(F)O5)n3)ccc2O1 (racemic) came out at 8.40
